Would you mind telling me the reported GI50 of each entry?
- Test system: EKVX NSCLC
- protocol.text: NCI tumour cell line growth inhibition, 48 h

Some entries whose results are on file:
Report its GI50 with EKVX NSCLC as the test system: `CCc1ccc(Oc2c(-c3ccc(OCc4ccc(Cl)cc4)cc3O)nn(C)c2C(F)(F)F)cc1`
1.03 µM

Enter measured GI50, system EKVX NSCLC, for the compound shown: `O=C(Nc1ccc(-n2cc(-c3ccncc3)c(-c3ccc(O)c(Cl)c3)n2)cc1)Nc1cc(C(F)(F)F)cc(C(F)(F)F)c1`
3.57 µM

Others:
Please tell me the measured GI50 for `CCOC(=O)c1cc(C(=O)c2ccc(OC)c(OC)c2)n2c1ccc1ccc3cccnc3c12` ; system: EKVX NSCLC.
4.14 µM

====

Please go through the items and note down their TGI.
- Tested on: DU-145 prostate
- protocol.text: NCI tumour cell line growth inhibition, 48 h

Report measured TGI; entry is `O=C(Nc1cccc2ccccc12)c1cc2ccccc2oc1=O`
> 100 µM

Entry COc1ccc(S(=O)(=O)NC(CCC(=O)NC(N)=O)C(=O)NC(N)=O)cc1 (configuration not stated) needs its TGI filled in; supply it.
> 100 µM

Return the recorded TGI value; entry: `O=C(OCCN=c1c2ccccc2ccc2ccccc12)c1cc([N+](=O)[O-])cc([N+](=O)[O-])c1`
> 100 µM

Could you please provide reported TGI for CC(=O)CCC1(C(=O)OCC(C)C)CCCC1=O (configuration not stated) ? Thanks!
> 100 µM

Give the reported value of TGI for this record: `O=c1[nH]nc(Nc2ccc(Cl)cc2)c2nnn(C3CCCCC3)c12`
> 100 µM

Answer for every listed entry: what is its TGI? The entries follow.
1. O=C(Nc1ccc(-n2cc(-c3ccncc3)c(-c3ccc(Cl)c(O)c3)n2)cc1)c1cc(C(F)(F)F)cc(C(F)(F)F)c1
2. CC1(C)N=C(/C(Cl)=[N+](/[O-])C(=O)c2ccc(Cl)cc2)C(C)(C)N1O
3. CCCCCCCCCCCCOCC(COP(=O)(O)OCCN=[N+]=[N-])OC(=O)CCCCCCCCCCC (configuration not stated)
4. CO[C@H]1C(=O)[C@]2(C)[C@@H](OC)C[C@H]3OC[C@@]3(OC(C)=O)[C@H]2[C@H](OC(=O)c2ccccc2)[C@]2(O)C[C@H](OC(=O)[C@H](O)[C@@H](NC(=O)OC(C)(C)C)c3ccccc3)C(C)=C1C2(C)C

["54.7 µM", "> 100 µM", "> 100 µM", "< 0.01 µM"]

====

- Tested on: LOX IMVI melanoma
- protocol.text: NCI tumour cell line growth inhibition, 48 h; in the data active = GI50 below about 0.43 µM; inactive = the rest
// one of active, inactive, no free text

Hello, I am checking results. What call was entered for `O=C1c2ccccc2-c2c1c1ccccc1c(=O)n2CCCNCCNCCCn1c2c(c3ccccc3c1=O)C(=O)c1ccccc1-2` ?
active

Per the assay record, what outcome was assigned to NC1=NC(c2ccccc2Cl)c2c(n[nH]c2N)N1 (stereo not given) ?
inactive

Dear colleague, could you share the recorded outcome for `O=C1Nc2ccc(-c3cccnc3)cc2/C1=C/c1cc(Br)c(O)c(Br)c1` when you have a moment?
inactive

Hi team, can someone confirm the assay call for `O=c1[nH]c2ccccc2cc1-c1nnc(Cc2ccccc2)o1` ?
inactive

New cases:
Outcome? `OCc1ccc(-c2ccc(-c3ccc(CO)o3)o2)o1`
inactive
